# measured target: mGAT3 (Mus musculus (Mouse), UniProt P31649)
# Sequence (P31649 whole entry): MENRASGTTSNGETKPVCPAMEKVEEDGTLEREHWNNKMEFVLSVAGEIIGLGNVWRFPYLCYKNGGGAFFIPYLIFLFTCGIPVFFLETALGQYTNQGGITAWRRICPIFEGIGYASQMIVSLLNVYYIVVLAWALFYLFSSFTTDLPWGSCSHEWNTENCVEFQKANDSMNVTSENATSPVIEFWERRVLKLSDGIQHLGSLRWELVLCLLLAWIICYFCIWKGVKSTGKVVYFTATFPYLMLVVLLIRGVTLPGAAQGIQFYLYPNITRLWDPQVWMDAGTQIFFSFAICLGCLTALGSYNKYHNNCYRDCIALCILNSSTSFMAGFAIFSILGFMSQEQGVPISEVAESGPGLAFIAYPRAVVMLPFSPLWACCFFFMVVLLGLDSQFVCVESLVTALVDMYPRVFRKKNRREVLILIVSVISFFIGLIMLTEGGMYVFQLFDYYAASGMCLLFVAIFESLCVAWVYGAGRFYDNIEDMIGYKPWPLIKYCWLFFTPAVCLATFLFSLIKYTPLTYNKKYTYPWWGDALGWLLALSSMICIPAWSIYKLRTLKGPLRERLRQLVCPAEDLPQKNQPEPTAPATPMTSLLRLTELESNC
# protocol notes: [3H]GABA uptake inhibition, mGAT3 in HEK293 cells
# Type: cell-based
# experimental context: GABA reuptake
# pIC50 (+/−SEM) mGAT3 listing for each entry below

// solved cases for pIC50 (+/−SEM) mGAT3 follow
>  <compound>
O[C@H](CNCc1ccccc1)[C@H](Cc1ccccc1)NC1c2ccccc2-c2ccccc21 [Compound 1]

>  <measured quantity>
pIC50 (+/−SEM) mGAT3

>  <observed result>
5.15+/− 0.07

$$$$
>  <compound>
O[C@H](CNCC1CC1)[C@H](Cc1ccccc1)NC1c2ccccc2-c2ccccc21 [JT-3]

>  <measured quantity>
pIC50 (+/−SEM) mGAT3

>  <observed result>
5.13 +/− 0.04

$$$$

The record that follows has no pIC50 (+/−SEM) mGAT3 shown yet.
Record CC(C)(C)c1cccc(CNC[C@@H](O)[C@H](Cc2ccccc2)NC2c3ccccc3-c3ccccc32)c1 [Compound 3] , field pIC50 (+/−SEM) mGAT3: 5.05 +/− 0.05

* * *

# measured target: human plasma butyrylcholinesterase (hBuChE) (Homo sapiens (Human))
# Sequence (P06276 29-602): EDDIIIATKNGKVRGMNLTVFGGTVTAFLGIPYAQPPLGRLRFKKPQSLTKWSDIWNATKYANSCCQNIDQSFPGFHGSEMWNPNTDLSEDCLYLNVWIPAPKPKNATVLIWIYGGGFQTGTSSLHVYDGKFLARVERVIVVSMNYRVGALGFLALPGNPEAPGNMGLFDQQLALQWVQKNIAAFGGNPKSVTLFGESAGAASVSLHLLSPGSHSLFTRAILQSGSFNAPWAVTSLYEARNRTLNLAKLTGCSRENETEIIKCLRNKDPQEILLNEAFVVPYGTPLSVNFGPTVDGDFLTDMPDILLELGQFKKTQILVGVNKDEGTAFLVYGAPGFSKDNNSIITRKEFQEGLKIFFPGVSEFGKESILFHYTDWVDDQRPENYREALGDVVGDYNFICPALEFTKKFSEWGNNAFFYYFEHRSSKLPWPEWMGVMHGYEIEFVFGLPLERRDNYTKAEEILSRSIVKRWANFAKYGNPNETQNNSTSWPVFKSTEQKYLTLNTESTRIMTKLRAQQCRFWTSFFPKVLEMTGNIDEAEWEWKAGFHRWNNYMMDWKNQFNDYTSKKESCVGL
# protocol notes: Ellman's test, inhibition of human plasma butyrylcholinesterase
# IC50 listing for each entry below
Use nM as the unit, but write only the number.

>  <cpd smiles>
C[C@H](NC[C@@H](O)[C@H](Cc1ccccc1)NC1c2ccccc2-c2ccccc21)c1ccccc1

>  <measured target>
human plasma butyrylcholinesterase (hBuChE) (Homo sapiens (Human))

>  <IC50, nM>
812

$$$$

Record CC(C)(C)CNC[C@@H](O)[C@H](Cc1ccccc1)NC(=O)CC1c2ccccc2-c2ccccc21 , field IC50: 207

Record CC(C)c1cccc(CNC[C@@H](O)[C@H](Cc2ccccc2)NC2c3ccccc3-c3ccccc32)c1 , field IC50: 489

Record C[C@H](NC[C@@H](O)[C@H](Cc1ccccc1)NC(=O)CC1c2ccccc2-c2ccccc21)c1ccccc1 , field IC50: 558

Record O=C(CC1c2ccccc2-c2ccccc21)N[C@@H](Cc1ccccc1)[C@H](O)CNCC1CC1 , field IC50: 246

Record O[C@@H](CNCc1ccccc1)[C@H](Cc1ccccc1)NC1c2ccccc2-c2ccccc21 , field IC50: 571

* * *

# measured target: Recombinant human Aβ1-42 peptide (Homo sapiens (Human), UniProt P05067)
# Sequence (P05067 672-713): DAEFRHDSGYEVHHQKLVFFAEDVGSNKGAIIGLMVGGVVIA
# protocol notes: Thioflavin T test, antiaggregation activity against beta-amyloid
# Assay type: biochemical
# experimental context: 10 μM test compound, 1.5 μM Aβ1-42; read-out: inh. Aβ aggr. % inh
# inhibition at 10 µM listing for each entry below
Number first, unit second.

>  <compound>
COc1ccccc1CNC[C@H](O)[C@H](Cc1ccccc1)NC1c2ccccc2-c2ccccc21 [Compound 7]

>  <measured target>
Recombinant human Aβ1-42 peptide (Homo sapiens (Human), UniProt P05067)

>  <measured quantity>
inhibition at 10 µM

>  <observed result>
86.7%

$$$$

Record COc1cccc(CNC[C@H](O)[C@H](Cc2ccccc2)NC2c3ccccc3-c3ccccc32)c1 [Compound 6] , field inhibition at 10 µM: 93.3%

Record CC(C)(C)c1ccc(CNC[C@H](O)[C@H](Cc2ccccc2)NC2c3ccccc3-c3ccccc32)cc1 [Compound 5] , field inhibition at 10 µM: 75.6%

* * *

# measured target: human plasma butyrylcholinesterase (hBuChE) (Homo sapiens (Human))
# protocol notes: Ellman's test, inhibition of human plasma butyrylcholinesterase
# IC50 listing for each entry below
Number first, unit second.

// solved cases for IC50 follow
>  <cpd smiles>
COc1ccccc1CNC[C@H](O)[C@H](Cc1ccccc1)NC1c2ccccc2-c2ccccc21

>  <measured quantity>
IC50

>  <observed result>
268 nM

$$$$
>  <cpd smiles>
O[C@H](CNCc1cccc(C(F)(F)F)c1)[C@H](Cc1ccccc1)NC1c2ccccc2-c2ccccc21

>  <measured quantity>
IC50

>  <observed result>
721 nM

$$$$
>  <cpd smiles>
O[C@H](CNCC1CC1)[C@H](Cc1ccccc1)NC1c2ccccc2-c2ccccc21

>  <measured quantity>
IC50

>  <observed result>
207 nM

$$$$

The record that follows has no IC50 shown yet.
Known value: human plasma butyrylcholinesterase (hBuChE) (Homo sapiens (Human)) IC50 of the compound CC(C)(NC[C@@H](O)[C@H](Cc1ccccc1)NC1c2ccccc2-c2ccccc21)c1ccccc1 equals 1170 nM
